self-splicing fitness (ln) for assorted sequences
# assay: self-splicing fitness, log relative to wild type (ln ratio); higher = more splicing; Tetrahymena group I intron in knt gene, E. coli kanamycin selection, DiMSum; sequences stand for … in CUCUCU…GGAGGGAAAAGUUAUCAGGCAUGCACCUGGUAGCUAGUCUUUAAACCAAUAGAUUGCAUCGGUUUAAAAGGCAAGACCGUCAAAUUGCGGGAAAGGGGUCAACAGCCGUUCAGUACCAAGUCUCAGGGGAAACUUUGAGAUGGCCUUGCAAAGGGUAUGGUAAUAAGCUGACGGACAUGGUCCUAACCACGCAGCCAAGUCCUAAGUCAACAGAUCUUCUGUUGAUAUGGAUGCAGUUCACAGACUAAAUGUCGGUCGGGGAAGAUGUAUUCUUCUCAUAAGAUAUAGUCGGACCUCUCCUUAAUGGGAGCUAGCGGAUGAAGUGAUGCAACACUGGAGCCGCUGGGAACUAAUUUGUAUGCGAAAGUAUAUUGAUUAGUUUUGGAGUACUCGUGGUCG;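 also: selection with 25 µg/mL kanamycin versus none on LB agar overnight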
# setupConditions: 37 °C
measure: self-splicing fitness (ln)

>>> print(df.to_string())
         primarysequence  reportedvalue
 0  UCAAAGCAAUAUUACGAUUC          -2.63
 1  GACAAGCAAUAUUACGCCCU           0.33
 2  AGCAAGCAAUAUUACGGUCA        0.00074
 3  AAAAAGCAAUAUUACGUUUA         -0.799
 4  UCUAAGCAAUAUUACGGGAC          -2.34
 5  UCGCAGCAAUAUUACGUUGC          -4.15
 6  AGGAAGCAAUAUUACGGCGG         -0.207
 7  CGUAAGCAAUAUUACGUCGA          -3.07
 8  UCUAAGCAAUAUUACGCCCG         0.0184
 9  ACAAAGCAAUAUUACGUGGC          -2.91
10  ACAUAGCAAUAUUACGUCAU          -2.35
11  CCUCAGCAAUAUUACGUUGG          -3.24
12  CUUGAGCAAUAUUACGAAUG         -0.596
13  GUUAAGCAAUAUUACGCGUA         -0.453
14  GUAUAGCAAUAUUACGCCCC         -0.594
15  CCUAAGCAAUAUUACGGUAU          -1.85

Every entry's value here was drawn from the supplement of paper PMC7877785.
